Origin of the recorded values: patent EP0811621A2

- TARGET DESC: TXA2/PGH2 receptor (Homo sapiens, UniProt P21731)
- Construct: Membranes from outdated human platelets were prepared as previously described
- Sequence (P21731 1-343): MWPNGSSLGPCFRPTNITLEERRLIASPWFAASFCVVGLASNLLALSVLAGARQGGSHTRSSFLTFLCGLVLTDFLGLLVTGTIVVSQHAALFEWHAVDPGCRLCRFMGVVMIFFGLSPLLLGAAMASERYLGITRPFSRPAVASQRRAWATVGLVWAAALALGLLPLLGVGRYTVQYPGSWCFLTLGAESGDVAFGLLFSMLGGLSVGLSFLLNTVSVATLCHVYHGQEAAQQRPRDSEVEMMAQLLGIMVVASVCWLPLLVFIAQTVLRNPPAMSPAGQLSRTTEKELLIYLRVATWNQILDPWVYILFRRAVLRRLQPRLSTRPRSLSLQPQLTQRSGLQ
- ASSAY METHOD TEXT: Receptor Binding Assay ([125I]IBOP, platelet membranes)
- SETTINGS: 30 °C for 30 min
ENDPOINT: Kd (nM)
Give bare numbers, in nM.

Consider the following illustrative entries.
q: Tell me the measured Kd of CC(OCCCNC(=O)c1coc(-c2ccc(/C(=C\CCCCC(=O)O)c3cccnc3)cc2)n1)C1CCCCC1 (stereo not shown) [Example 26] , please.
a: 58.2

q: Tell me the measured Kd of O=C(O)CCCC/C=C(\c1ccc(-c2nc(C(=O)NCCCCOc3ccccc3)co2)cc1)c1cccnc1 [Example 30] , please.
a: 52.2

With those in mind, consider the next compound.
q: Tell me the measured Kd of O=C(O)CCCC/C=C(\c1ccc(-c2nc(C(=O)NCCCCC3CCCCC3)co2)cc1)c1cccnc1 [Example 2] , please.
a: 9.9
